study-target: Adrenergic receptor alpha-2 (Rattus norvegicus) (UniProt P22086+P19328+P22909)
protocol-details: In vivo effective dose required to inhibit xylazine-induced loss of righting in rats upon subcutaneous administration
Assay type: functional, organism-based
The following compounds are listed with their measured ED50 values.
Write the number in mg/kg without appending the unit.

compound: Fc1ccc2c(c1)CC(CC1CN=CN1)C2 (centres undefined)
ED50 [mg/kg]: 2.7

Q: ED50 lookup needed for COc1cc2c(cc1OC)C1=NO[C@@H](CN3CCN(C/C=C/c4ccccc4)CC3)[C@@H]1CO2 (stereo in doubt; (+)5) , thanks.
A: 2.5

Q: And for COc1ccc2c(c1)OCC1C2=NOC1CN1CCN(C/C=C/c2ccccc2)CC1 (centres undefined) ?
A: 2

Q: Next record, please: COc1cc2c(cc1OC)C1=NO[C@@H](CN3CCN(C/C(C)=C/c4ccccc4)CC3)[C@@H]1CO2 (stereo in doubt; (+)15f)
A: 3.1

Q: Cool, now COc1cc2c(cc1OC)C1=NOC(CN3CCN(Cc4ccc5ccccc5c4)CC3)C1CO2 (centres undefined)
A: 5

Q: Likewise for COc1cc2c(cc1OC)C1=NOC(CN3CCN(C/C=C(\C)c4ccccc4)CC3)C1CO2 (centres undefined) ?
A: 2.5

---

Protein target, amino acids: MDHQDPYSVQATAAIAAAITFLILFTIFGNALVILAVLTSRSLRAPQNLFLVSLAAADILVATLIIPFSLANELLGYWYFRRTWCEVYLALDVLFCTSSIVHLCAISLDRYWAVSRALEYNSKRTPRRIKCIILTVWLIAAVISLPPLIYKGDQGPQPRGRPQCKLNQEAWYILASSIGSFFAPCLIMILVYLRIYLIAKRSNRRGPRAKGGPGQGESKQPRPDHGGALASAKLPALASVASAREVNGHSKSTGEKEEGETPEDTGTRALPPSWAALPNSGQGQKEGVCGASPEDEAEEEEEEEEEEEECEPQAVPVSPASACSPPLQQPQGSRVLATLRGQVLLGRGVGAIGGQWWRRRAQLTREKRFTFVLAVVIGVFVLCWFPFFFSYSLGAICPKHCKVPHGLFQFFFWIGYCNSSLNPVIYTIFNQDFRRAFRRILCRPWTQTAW
endpoint: Ki (nM)
Response body: numeric value in nM, unit text excluded.

molecule: COc1cc2c(cc1OC)C1=NOC(CN3CCN(Cc4csc5ccccc45)CC3)C1CO2 (stereo not drawn)
endpoint: Ki
number: 370
//
molecule: COc1cccc2c1CCC[C@H]2CN(C)CCc1ccc2ccoc2c1
endpoint: Ki
number: 11
//
molecule: COc1cc2c(cc1OC)C1=NO[C@@H](CN3CCN(C/C=C/c4ccccc4)CC3)[C@@H]1CO2 (stereo in doubt; (-)5)
endpoint: Ki
number: 42

Attention now turns to another entry.
Q: Can you look up the measured Ki of COc1cc2c(cc1OC)C1=NOC(CN3CCN(CCCc4ccccc4)CC3)C1CO2 (stereo not drawn) for me?
A: 42

---

study-target: Adrenergic receptor alpha-2 (Rattus norvegicus) (UniProt P22086+P19328+P22909)
protocol-details: In vivo effective dose required to inhibit xylazine-induced loss of righting in rats upon subcutaneous administration
Format: functional, organism-based
ED50 by entry:
Number first, unit second: that is the form wanted.

Example entries begin here.
molecule: COc1cc2c(cc1OC)C1=NO[C@@H](CN3CCN(C/C=C/c4ccccc4)CC3)[C@@H]1CO2 (stereo in doubt; (-)5)
result: 5 mg/kg

molecule: COc1cc2c(cc1OC)C1=NOC(CN3CCN(Cc4cnc5ccccc5c4)CC3)C1CO2 (stereo not drawn)
result: 5 mg/kg

Now turn to the next molecule.
Q: Which measured ED50 value corresponds to COc1cc2c(cc1OC)C1=NOC(CN3CCN(Cc4ccc5ncccc5c4)CC3)C1CO2 (stereo not drawn) ?
A: 5 mg/kg
